- SYSTEM NAME: T1, human nectin-4 protein expressed on the surface of cells (human, UniProt Q96NY8 32-510)
- T1 sequence: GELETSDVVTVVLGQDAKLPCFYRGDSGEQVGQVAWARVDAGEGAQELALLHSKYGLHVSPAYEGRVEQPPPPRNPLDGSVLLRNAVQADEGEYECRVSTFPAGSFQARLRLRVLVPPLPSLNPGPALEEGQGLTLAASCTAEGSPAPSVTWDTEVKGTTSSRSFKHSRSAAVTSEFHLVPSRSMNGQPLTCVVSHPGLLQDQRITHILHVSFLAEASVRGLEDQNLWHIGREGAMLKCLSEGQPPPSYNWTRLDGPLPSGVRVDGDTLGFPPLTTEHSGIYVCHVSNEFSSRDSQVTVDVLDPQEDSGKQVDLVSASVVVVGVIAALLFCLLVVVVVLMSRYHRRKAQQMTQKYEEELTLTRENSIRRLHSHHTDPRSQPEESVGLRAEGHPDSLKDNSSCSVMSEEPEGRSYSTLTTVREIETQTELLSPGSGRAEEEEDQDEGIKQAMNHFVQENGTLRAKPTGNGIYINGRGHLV
- TEST DESCRIPTION: cell-based or functional assay
ATTRIBUTE MEASURED: Cell kill IC50, MDA-MB468 (nM)
Respond with the bare value in nM.

Fill in the blank: the reported Cell kill IC50, MDA-MB468 of Nectin-4 5D9 VH2/VL1 (antibody, V domains shown, Humanized; also called 5D9 VH variant 2 / 5D9 VL variant 1) VH: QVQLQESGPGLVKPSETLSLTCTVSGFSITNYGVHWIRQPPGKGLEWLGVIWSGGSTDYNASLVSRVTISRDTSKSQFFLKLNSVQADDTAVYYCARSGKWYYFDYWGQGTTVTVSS VL: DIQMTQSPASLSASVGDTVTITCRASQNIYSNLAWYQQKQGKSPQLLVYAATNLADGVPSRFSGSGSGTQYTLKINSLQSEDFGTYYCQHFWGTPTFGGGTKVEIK is ____.
21.4

Fill in the blank: the reported Cell kill IC50, MDA-MB468 of Nectin-4 5D9 VH3/VL2 (antibody, V domains shown, Humanized; also called 5D9 VH variant 3 / 5D9 VL variant 2) VH: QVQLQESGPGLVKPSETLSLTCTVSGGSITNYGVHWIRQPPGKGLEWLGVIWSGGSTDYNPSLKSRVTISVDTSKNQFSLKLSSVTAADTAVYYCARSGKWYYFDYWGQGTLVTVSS VL: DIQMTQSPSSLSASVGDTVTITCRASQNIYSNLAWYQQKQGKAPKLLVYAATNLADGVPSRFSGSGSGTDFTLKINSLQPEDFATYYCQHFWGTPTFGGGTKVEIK is ____.
17.7

Fill in the blank: the reported Cell kill IC50, MDA-MB468 of Nectin-4 5D9 VH4/VL1 (antibody, V domains shown, Humanized; also called 5D9 VH variant 4 / 5D9 VL variant 1; Nectin-4 VH4/VL1) VH: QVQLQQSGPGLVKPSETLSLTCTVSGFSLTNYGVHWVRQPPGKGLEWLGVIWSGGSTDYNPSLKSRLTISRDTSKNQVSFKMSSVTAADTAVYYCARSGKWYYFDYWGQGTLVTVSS VL: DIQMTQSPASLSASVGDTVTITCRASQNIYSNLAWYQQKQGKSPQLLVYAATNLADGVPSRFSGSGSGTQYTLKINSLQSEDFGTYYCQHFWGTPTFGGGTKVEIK is ____.
1.08

Fill in the blank: the reported Cell kill IC50, MDA-MB468 of Nectin-4 5D9 VH4/VL3 (antibody, V domains shown, Humanized; also called 5D9 VH variant 4 / 5D9 VL variant 3) VH: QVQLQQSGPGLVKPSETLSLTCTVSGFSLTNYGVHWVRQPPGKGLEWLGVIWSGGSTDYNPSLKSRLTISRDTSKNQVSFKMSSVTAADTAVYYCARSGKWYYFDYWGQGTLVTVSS VL: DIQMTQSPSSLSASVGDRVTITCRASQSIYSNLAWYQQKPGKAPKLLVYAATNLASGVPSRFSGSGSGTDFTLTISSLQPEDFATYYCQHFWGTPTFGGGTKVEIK is ____.
3.71

Fill in the blank: the reported Cell kill IC50, MDA-MB468 of Nectin-4 5D9 VH3/VL5 (antibody, V domains shown, Humanized; also called 5D9 VH variant 3 / 5D9 VL variant 5) VH: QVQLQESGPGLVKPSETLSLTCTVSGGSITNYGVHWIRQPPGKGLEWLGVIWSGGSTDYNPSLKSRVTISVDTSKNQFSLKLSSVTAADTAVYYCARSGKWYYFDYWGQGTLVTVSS VL: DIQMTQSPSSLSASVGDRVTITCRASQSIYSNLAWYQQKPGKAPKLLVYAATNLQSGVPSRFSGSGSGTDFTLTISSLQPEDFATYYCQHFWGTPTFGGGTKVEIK is ____.
43.3

Fill in the blank: the reported Cell kill IC50, MDA-MB468 of Nectin-4 5D9 VH2/VL5 (antibody, V domains shown, Humanized; also called 5D9 VH variant 2 / 5D9 VL variant 5) VH: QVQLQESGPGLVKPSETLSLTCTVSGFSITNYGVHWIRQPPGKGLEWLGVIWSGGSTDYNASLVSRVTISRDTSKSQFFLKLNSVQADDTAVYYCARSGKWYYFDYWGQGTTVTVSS VL: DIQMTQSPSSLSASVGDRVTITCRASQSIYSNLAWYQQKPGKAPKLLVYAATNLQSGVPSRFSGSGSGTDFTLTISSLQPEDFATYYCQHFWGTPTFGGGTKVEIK is ____.
252

Fill in the blank: the reported Cell kill IC50, MDA-MB468 of Nectin-4 5D9 VH4/VL2 (antibody, V domains shown, Humanized; also called 5D9 VH variant 4 / 5D9 VL variant 2) VH: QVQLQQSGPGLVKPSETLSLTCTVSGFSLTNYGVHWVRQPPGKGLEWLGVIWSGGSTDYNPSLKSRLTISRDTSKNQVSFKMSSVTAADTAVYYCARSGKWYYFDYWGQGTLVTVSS VL: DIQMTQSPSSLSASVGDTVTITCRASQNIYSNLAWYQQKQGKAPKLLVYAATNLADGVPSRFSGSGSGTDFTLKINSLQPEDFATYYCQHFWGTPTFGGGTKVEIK is ____.
3.13

Fill in the blank: the reported Cell kill IC50, MDA-MB468 of Nectin-4 5D9 VH1/VL3 (antibody, V domains shown, Humanized; also called 5D9 VH variant 1 / 5D9 VL variant 3) VH: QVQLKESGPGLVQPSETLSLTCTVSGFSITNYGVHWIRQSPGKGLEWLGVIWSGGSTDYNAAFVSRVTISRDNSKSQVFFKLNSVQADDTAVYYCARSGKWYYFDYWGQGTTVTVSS VL: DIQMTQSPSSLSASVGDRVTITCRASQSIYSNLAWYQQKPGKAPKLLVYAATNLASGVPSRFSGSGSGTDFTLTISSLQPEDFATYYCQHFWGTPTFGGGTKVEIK is ____.
10.3

Fill in the blank: the reported Cell kill IC50, MDA-MB468 of Nectin-4 5D9 VH3/VL3 (antibody, V domains shown, Humanized; also called 5D9 VH variant 3 / 5D9 VL variant 3) VH: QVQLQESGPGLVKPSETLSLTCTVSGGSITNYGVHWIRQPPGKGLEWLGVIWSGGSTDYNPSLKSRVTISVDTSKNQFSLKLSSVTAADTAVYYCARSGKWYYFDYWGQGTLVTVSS VL: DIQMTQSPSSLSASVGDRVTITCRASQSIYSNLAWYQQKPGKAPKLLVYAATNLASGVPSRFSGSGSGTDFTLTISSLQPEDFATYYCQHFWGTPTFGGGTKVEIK is ____.
15.6

Fill in the blank: the reported Cell kill IC50, MDA-MB468 of Nectin-4 5D9 VH5/VL5 (antibody, V domains shown, Humanized; also called 5D9 VH variant 5 / 5D9 VL variant 5) VH: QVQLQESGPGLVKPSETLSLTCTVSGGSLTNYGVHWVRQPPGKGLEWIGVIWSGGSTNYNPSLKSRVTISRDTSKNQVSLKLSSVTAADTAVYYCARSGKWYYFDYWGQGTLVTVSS VL: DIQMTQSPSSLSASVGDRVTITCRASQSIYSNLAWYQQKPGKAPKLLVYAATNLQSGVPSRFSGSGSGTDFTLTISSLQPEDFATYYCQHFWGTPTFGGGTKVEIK is ____.
24
